Source: patent US20220132847A1

- System: Digitaria sanguinalis (DIGSA)
- ASSAY NAME: Post-emergence efficacy, glasshouse
- Format: in vivo
- DETAILS: Digitaria sanguinalis, post-emergence, 312 h; Application Rate 1000 g/Ha; evaluated after 13 days; 100=total damage to plant, 0=no damage to plant; read-out: Control of weed species after post-emergence application, DIGSA
OUTCOME MEASURE: pest or weed control at 1000 g/ha
Numeric answer plus unit only.

Consider the worked cases shown below.
{"COMPOUND": "C[n+]1cc(C(=O)[N-]S(=O)(=O)C(C)(C)C)c2ccccc2n1", "pest or weed control at 1000 g/ha": "10%"}
{"COMPOUND": "Cc1c(C(=O)[O-])c2ccccc2n[n+]1C [Compound A61, 2,3-dimethylcinnolin-2-ium-4-carboxylate]", "pest or weed control at 1000 g/ha": "70%"}
{"COMPOUND": "C[n+]1cc(C(=O)[N-]S(=O)(=O)c2ccc(Cl)s2)c2ccccc2n1", "pest or weed control at 1000 g/ha": "10%"}

We next turn to a different compound, shown below.
Enquiry: Quick one: pest or weed control at 1000 g/ha of CC(C)P(=O)([O-])c1c[n+](C)nc2ccccc12 ?
Return: 100%
